Items are presented alongside their recorded Ki.
Target: B1 bradykinin receptor (Homo sapiens, UniProt P46663)
Sequence (P46663 whole entry): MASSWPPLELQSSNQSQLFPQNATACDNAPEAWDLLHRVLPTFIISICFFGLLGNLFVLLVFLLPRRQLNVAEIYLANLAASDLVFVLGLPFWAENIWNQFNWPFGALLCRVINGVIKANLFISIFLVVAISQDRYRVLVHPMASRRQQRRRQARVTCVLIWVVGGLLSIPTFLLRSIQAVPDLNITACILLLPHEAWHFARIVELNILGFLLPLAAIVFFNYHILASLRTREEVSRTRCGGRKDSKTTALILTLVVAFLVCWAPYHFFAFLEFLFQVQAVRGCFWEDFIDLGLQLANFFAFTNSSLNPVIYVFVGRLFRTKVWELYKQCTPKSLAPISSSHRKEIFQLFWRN
Numbers only; they are read as nM.

# input For COC(=O)c1ccccc1-c1ccc(CNC(=O)C2(NC(=O)c3cncnc3)CC2)cc1 , what is its reported Ki?
# output 25.5

# input Same again, this time with COC(=O)c1ccccc1-c1ccc(CNC(=O)[C@@H](C)NC(=O)CC(F)(F)F)cc1
# output 1580

# input Same again, this time with COC(=O)c1ccccc1-c1ccc(CNC(=O)C2(NC(=O)CC(F)(F)F)CCCC2)cc1
# output 462

# input Same again, this time with COC(=O)c1ccccc1-c1ccc(CNC(=O)C2(NC(=O)CC(F)(F)F)CCCCC2)cc1
# output 752

* * *

Items are presented alongside their recorded half-life.
Experiment: Half life in iv dosed rat
Type: ADME, organism-based
Settings: in vivo
Numbers only; they are read as h.

Answered examples (3):
COC(=O)c1ccccc1-c1ccc(CNc2ncccc2NC(=O)CC(F)(F)F)cc1 ... 0.15
COC(=O)c1ccccc1-c1ccc(CNC(=O)C2(NC(=O)CC(F)(F)F)CCCCC2)cc1 ... 12
COC(=O)c1ccccc1-c1ccc(CNC(=O)C2(NC(=O)CC(F)(F)F)CC2)cc1 ... 9.5

Shift focus to the following entry.
# input For COC(=O)c1ccccc1-c1ccc(CNC(=O)C(C)(C)NC(=O)CC(F)(F)F)cc1 , what is its reported half-life?
# output 6.6

* * *

Items are presented alongside their recorded clearance.
Assay: Clearance in iv dosed rat
Type: ADME, organism-based
Settings: in vivo
Numbers only; they are read as mL/min/kg.

Answered examples (2):
COC(=O)c1ccccc1-c1ccc(CNC(=O)C2(NC(=O)CC(F)(F)F)CC2)cc1 ... 9.3
COC(=O)c1ccccc1-c1ccc(CNC(=O)C2(NC(=O)CC(F)(F)F)CCCCC2)cc1 ... 2.6

Shift focus to the following entry.
# input For COC(=O)c1ccccc1-c1ccc(CNC(=O)C(C)(C)NC(=O)CC(F)(F)F)cc1 , what is its reported clearance?
# output 4.2
